Target: human CP4H1 (Homo sapiens)
Sequence (P13674 18-534): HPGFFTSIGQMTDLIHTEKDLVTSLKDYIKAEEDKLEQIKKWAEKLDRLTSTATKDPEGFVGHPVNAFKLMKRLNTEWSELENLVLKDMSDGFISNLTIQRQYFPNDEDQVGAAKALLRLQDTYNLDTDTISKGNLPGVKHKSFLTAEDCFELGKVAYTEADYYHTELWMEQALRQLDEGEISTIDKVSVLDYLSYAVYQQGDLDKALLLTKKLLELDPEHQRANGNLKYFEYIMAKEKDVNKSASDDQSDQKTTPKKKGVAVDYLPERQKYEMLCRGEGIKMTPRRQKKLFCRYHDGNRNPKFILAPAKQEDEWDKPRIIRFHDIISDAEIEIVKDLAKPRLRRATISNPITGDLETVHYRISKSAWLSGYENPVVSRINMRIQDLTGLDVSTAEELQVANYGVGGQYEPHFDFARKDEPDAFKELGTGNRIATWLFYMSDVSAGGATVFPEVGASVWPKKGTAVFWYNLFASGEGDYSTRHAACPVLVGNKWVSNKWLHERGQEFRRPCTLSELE
Sequence (P07237 18-508 partner): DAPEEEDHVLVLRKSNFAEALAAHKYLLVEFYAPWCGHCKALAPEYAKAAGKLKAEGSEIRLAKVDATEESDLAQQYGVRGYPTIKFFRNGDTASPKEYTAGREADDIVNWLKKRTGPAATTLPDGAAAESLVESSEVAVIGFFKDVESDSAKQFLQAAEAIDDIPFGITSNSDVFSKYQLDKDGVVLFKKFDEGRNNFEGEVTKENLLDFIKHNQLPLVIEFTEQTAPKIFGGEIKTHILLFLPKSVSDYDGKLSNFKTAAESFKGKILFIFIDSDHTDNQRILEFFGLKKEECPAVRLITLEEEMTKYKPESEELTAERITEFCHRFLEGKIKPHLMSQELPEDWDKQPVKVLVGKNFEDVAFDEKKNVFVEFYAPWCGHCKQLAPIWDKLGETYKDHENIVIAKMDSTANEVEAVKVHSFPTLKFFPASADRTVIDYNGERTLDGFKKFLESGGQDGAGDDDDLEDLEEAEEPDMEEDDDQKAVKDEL
Test: UPLC assay of model peptides and isosteres as substrates
Assay type: biochemical
Conditions: read-out: Ki (dissociation constant for substrate binding in an inhibitory manner); substrate-inhibition fit (R^2 = 0.98); dansylGPPGOEt 58–1860 µM, α-ketoglutarate 1.00 mM, CP4H1 100 nM, pH 7.8, 30 °C, 15 min, UPLC A289; triplicate
* marks the point of attachment. Dansyl = CN(C)c1cccc2c(S(=O)(=O)*)cccc12
recorded-metric: pKi
Please treat pKi as minus the base-10 logarithm of the molar concentration.

pKi for dansylGlyProProGlyOEt (Dansyl-GPPG-OEt; SMILES CCOC(=O)CNC(=O)[C@@H]1CCCN1C(=O)[C@@H]1CCCN1C(=O)CNS(=O)(=O)c1cccc2c(N(C)C)cccc12) [Compound 1] is 3.52
